B1: Pistol ribozyme (parent)
chain: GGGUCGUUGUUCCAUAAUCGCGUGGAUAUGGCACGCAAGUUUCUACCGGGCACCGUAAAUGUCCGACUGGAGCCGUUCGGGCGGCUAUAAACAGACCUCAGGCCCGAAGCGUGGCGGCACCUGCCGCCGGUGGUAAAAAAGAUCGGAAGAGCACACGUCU

Variants of: B1
Method Description: aptazyme ON/OFF ratio, guanine; higher = stronger switching; co-transcriptional cleavage with and without guanine
Here the recorded aptazyme ON/OFF ratio is given for each entry.
API note: the answer field is a bare number with no unit suffix.

Solved cases (10 shown):
U7C U8C G9U C12G C13U = 1.17
G9C U10A U11A C12U = 1.66
U7C U8G G9C U10G U11G C12A = 1.18
U7C U8A G9U U10C C12G C13U = 1.22
U8C G9U U10G C12A C13U = 1.57
U7C U8C G9A U11A C12G = 1.21
U8A G9A U10C U11C C12G C13A = 1.03
U7C U8A G9C U10C U11G C12U = 1.08
U7G G9U U11A C12U = 1.32
U7G U8A U10A U11C C12G C13G = 1.07

-- ask Which measured aptazyme ON/OFF ratio value corresponds to U7G U8C G9A U11A C13G ?
-- reply 1.03

-- ask Can you share its aptazyme ON/OFF ratio? I mean this variant: U7A U8G
-- reply 1.13

-- ask I would be grateful if you could share the reported aptazyme ON/OFF ratio for U7G U8G G9A U10A .
-- reply 2.16

-- ask So what's the measured aptazyme ON/OFF ratio for this one? U7C U8C U10C C12G C13U
-- reply 1.2

Source: the RNAGym collection of RNA variant scans (doi:10.1021/acssynbio.7b00057)
